Catalogue of compounds with associated MNTC (maximum noncytotoxic concentration)
Tested on: CRFK cells
Assay info: Cytotoxicity assay of the compounds (CCK-8)
Type: cell-based, feline
Recorded conditions: CRFK cells, 72 h, CCK-8; concentration at which more than 90% of the cells survive
Measurement kind: MNTC (maximum noncytotoxic concentration) (µg/mL)

- Compound: "O=C1CCC[C@@H]2[C@H]3CCCN4CCC[C@@H](CN12)[C@@H]34"
  Value observed: 699.8
- Compound: "Cc1nc(C)c(C)nc1C.Cl [Ligustrazine hydrochloride]"
  Value observed: 969.6
- Compound: "Cc1coc2c1C(=O)C(=O)c1c-2ccc2c1CCCC2(C)C"
  Value observed: 290.9
- Compound: "N#C[C@@]1(c2ccc3c(N)ncnn23)O[C@H](CO)[C@@H](O)[C@H]1O [GS-441524, reference compound]"
  Value observed: 36.20
- Compound: "CC1(C)[C@@H](O[C@H]2O[C@H](C(=O)O)[C@@H](O)[C@H](O)[C@H]2O[C@@H]2O[C@H](C(=O)O)[C@@H](O)[C@H](O)[C@H]2O)CC[C@]2(C)[C@H]3C(=O)C=C4[C@@H]5C[C@@](C)(C(=O)O)CC[C@]5(C)CC[C@@]4(C)[C@]3(C)CC[C@@H]12"
  Value observed: 1412

* * *

Assay info: Cytotoxicity assay of the compounds (CCK-8)
Assay type: cell-based, feline
Recorded conditions: cat; CRFK cells, 72 h, CCK-8; read-out: CC50
Method: CRFK cells were seeded in 96-well cell culture plates at a density of 1 × 10^4 cells/well and incubated at 37 °C with 5% CO2 until the cell density reached more than 90%. Then, the medium was discarded, and the cells were washed twice with PBS. […]
Catalogue of compounds with associated CC50 at 72 h

- Compound: "O=C1CCC[C@@H]2[C@H]3CCCN4CCC[C@@H](CN12)[C@@H]34"
  CC50 at 72 h (µg/mL): 1110
- Compound: "Cc1coc2c1C(=O)C(=O)c1c-2ccc2c1CCCC2(C)C"
  CC50 at 72 h (µg/mL): 807
- Compound: "N#C[C@@]1(c2ccc3c(N)ncnn23)O[C@H](CO)[C@@H](O)[C@H]1O [GS-441524, reference compound]"
  CC50 at 72 h (µg/mL): 70.3
- Compound: "CC1(C)[C@@H](O[C@H]2O[C@H](C(=O)O)[C@@H](O)[C@H](O)[C@H]2O[C@@H]2O[C@H](C(=O)O)[C@@H](O)[C@H](O)[C@H]2O)CC[C@]2(C)[C@H]3C(=O)C=C4[C@@H]5C[C@@](C)(C(=O)O)CC[C@]5(C)CC[C@@]4(C)[C@]3(C)CC[C@@H]12"
  CC50 at 72 h (µg/mL): 3320

* * *

Catalogue of molecules with associated log10(CC50 at 72 h)
Assay info: Cytotoxicity assay of the compounds (CCK-8)
Assay type: cell-based, feline
Recorded conditions: cat
Measurement kind: log10(CC50 at 72 h) (log10 of the value in mg/L)

- Molecule: "O=C(O)/C=C/c1ccc(O)c(O)c1 [Caffeic acid]"
  Measurement kind: "log10(CC50 at 72 h)"
  Value observed: 1.77
- Molecule: "O=C(/C=C/c1ccc(O)c(O)c1)O[C@@H]1C[C@](O)(C(=O)O)C[C@@H](O)[C@H]1O [Chlorogenic acid]"
  Measurement kind: "log10(CC50 at 72 h)"
  Value observed: 3.34
- Molecule: "O=c1c(-c2ccc(O)cc2)coc2c([C@@H]3O[C@H](CO)[C@@H](O)[C@H](O)[C@H]3O)c(O)ccc12 [Puerarin]"
  Measurement kind: "log10(CC50 at 72 h)"
  Value observed: 2.32
- Molecule: "O=C(O)[C@H]1O[C@@H](Oc2cc3oc(-c4ccccc4)cc(=O)c3c(O)c2O)[C@H](O)[C@@H](O)[C@@H]1O [Baicalin]"
  Measurement kind: "log10(CC50 at 72 h)"
  Value observed: 2.06
- Molecule: "Cc1cccc2c3c(ccc12)C1=C(C(=O)C3=O)[C@@H](C)CO1 [Dihydrotanshinone I]"
  Measurement kind: "log10(CC50 at 72 h)"
  Value observed: 2.63

* * *

Test system: CRFK cells
Assay info: Cytotoxicity assay of the compounds (CCK-8)
Type: cell-based, feline
Recorded conditions: cat, 72 h
Define the label as criterion met when MNTC (maximum noncytotoxic concentration) is strictly less than 50 µg/mL and as criterion not met in all remaining cases.

- Compound: "O=C(O)[C@H]1O[C@@H](Oc2cc3oc(-c4ccccc4)cc(=O)c3c(O)c2O)[C@H](O)[C@@H](O)[C@@H]1O"
  System under test: "CRFK cells"
  Cat: "criterion met"
- Compound: "Cc1cccc2c3c(ccc12)C1=C(C(=O)C3=O)[C@@H](C)CO1 [Dihydrotanshinone I]"
  System under test: "CRFK cells"
  Cat: "criterion not met"
- Compound: "O=c1c(-c2ccc(O)cc2)coc2c([C@@H]3O[C@H](CO)[C@@H](O)[C@H](O)[C@H]3O)c(O)ccc12"
  System under test: "CRFK cells"
  Cat: "criterion not met"
- Compound: "O=C(/C=C/c1ccc(O)c(O)c1)O[C@@H]1C[C@](O)(C(=O)O)C[C@@H](O)[C@H]1O"
  System under test: "CRFK cells"
  Cat: "criterion not met"
- Compound: "O=C(O)/C=C/c1ccc(O)c(O)c1"
  System under test: "CRFK cells"
  Cat: "criterion not met"

# credit: paper PMC11431997
